Provenance of the data: PubChem BioAssay (NCI)

System: NCI-H226 lung
Assay: NCI-60 one-dose screen, 48 h (100 = growth as untreated, 0 = no growth, -100 = all killed)
Conditions: 10 µM unless noted
About 83,000 compounds went through this panel and 20% of them were active in at least one assay; those are over-represented in the sample as a whole.
Mark n for growth values under 70%, and y for everything at or above.

Examples from the recorded data:
INSERT INTO assay_data (compound, answer_label) VALUES
  ('Cn1c(=O)c2c3c(oc2c2ccccc21)C(=O)c1ccccc1C3=O', 'y'),
  ('Cc1ccc2oc(=O)cc(-c3nc4ccc([N+](=O)[O-])cc4[nH]3)c2c1', 'n'),
  ('COC(=O)C1(C)COP(=O)(NC23CC4CC(CC(C4)C2)C3)OC1 (stereo unspecified)', 'y'),
  ('COc1ccc(-c2nn(-c3cccc(Cl)c3)cc2/C=C2\C(=N)N(c3ccccc3)N=C2N)cc1', 'n'),
  ('COc1c(-c2cc(-c3ccc(C)o3)[nH]c(=O)n2)c(O)cc2occc12', 'n');

For the next question, use this compound.
Evaluate CCCCC(CCc1ccccn1)C(=O)c1ccccc1 (stereo unspecified) : growth at minimum 70%?
y

----------
Tested on: MCF7 breast
Experiment: NCI-60 one-dose screen, 48 h
Settings: 10 µM unless noted
This is part of a sample that, as a whole, favours compounds with a hit. Of some 83,000 tested, about 20% had one in any assay. The source made the active and inactive calls. The calls were made as follows: active = growth percent below 10; inactive = the rest.
Tick one outcome: t (active), f (inactive)

INSERT INTO results (compound, tested_system, answer_label) VALUES
  ('CCCCCc1c(C)[nH]c(/C=C2\N=C(c3ccc[nH]3)C=C2CC)c1C', 'MCF7 breast', 't'),
  ('Cc1nc2ccc(Nc3nc(N4CCOCC4)nc(N4CCN(C)CC4)n3)cc2n1Cc1ccccc1', 'MCF7 breast', 'f'),
  ('COCCCNCC(=O)Nc1c(C)cccc1C', 'MCF7 breast', 'f'),
  ('Nc1cccc(S(=O)(=O)c2cccc(N)c2)c1', 'MCF7 breast', 'f'),
  ('O=C(O)C1[S][Sb]([CH](C(=O)O)[CH](C(=O)O)[Sb]2[S]C(C(=O)O)C(C(=O)O)[S]2)[S]C1C(=O)O (stereo unspecified)', 'MCF7 breast', 'f');

Entry COc1ccc2nc(NC(=O)/C(=C/c3cc(OC)c(OC)c(OC)c3)c3ccc(OC)c(OC)c3)sc2c1 : call = ?
f

Entry COc1ccc(OC)c(Nc2nc(-c3c(C)nc4sccn34)cs2)c1 : call = ?
f

Entry CSCCC1NC(=O)C(C(C)=Nc2ccccc2)=C1O (stereo unspecified) : call = ?
f

Entry CN1CCN(Cc2ccc(NC(=O)c3ccc(C#N)c(C#Cc4cnc(N)c5ncccc45)c3)cc2C(F)(F)F)CC1 : call = ?
f

Entry O=c1c2sc3ccccc3c2nnn1-c1ccc(F)c(Cl)c1 : call = ?
f

Entry CC(COC(=O)c1ccccc1)N1CC2CCC(C1)O2 (stereo unspecified) : call = ?
f

Entry CC(=O)[C@H]1CC[C@H]2[C@@H]3CC[C@H]4CC=CC[C@]4(C)[C@H]3CC[C@]12C : call = ?
f

Entry O=C(c1ccc(C(F)(F)F)c(Cl)c1)N(Cc1ccc(Cl)cc1)c1ccc(-c2cc(C(F)(F)F)[nH]n2)c(O)c1 : call = ?
t

Entry CCCCNCC(O)c1cc2c(Cl)cc(Cl)cc2c2cc(C(F)(F)F)ccc12 (stereo unspecified) : call = ?
t
